Entries and their measured z-score follow.
# test.description: yeast growth modulation, basal conditions, primary screen, YJM789 clinical isolate, OD600, 24 h (AID 1089);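 further: growth of clinical yeast isolate S. cerevisiae YJM 789 seeded 1000 cells per well; test concentration not given here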
# setup.conditions: S. cerevisiae YJM789 growth, higher = more signal, called active from +8 up or from −8 down

# compound, z-score
rows = [
    ("CN1C(=O)C2C=CC(C(O)c3cc(C(F)(F)F)cc(C(F)(F)F)c3)N(N3CCCCC3)C2C1=O (stereo not drawn)", 1.69),
    ("COC(=O)C(CC#Cc1ccc2c(c1)[C@]1(C(=O)N2)[C@H](C(=O)O)[C@H]2C(=O)O[C@H](c3ccccc3)[C@H](c3ccccc3)N2[C@@H]1c1ccc(O)cc1)C(=O)OC", 1.06),
    ("O=C1O[C@@H](c2ccccc2)[C@@H](c2ccccc2)N2[C@@H](c3ccc(OCCO)cc3)[C@]3(C(=O)Nc4ccccc43)[C@@H](C(=O)NC[C@H](O)c3ccccc3)[C@H]12", 1.63),
]

----------
# test.description: modulators of S6 phosphorylation in cells, primary screen, cell-based, A549, cytoblot, luminescence, serum-stimulated (AID 1158);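 further: serum-stimulated A549 lung adenocarcinoma cells; signal is phosphorylated S6 detected by cytoblot immunostaining with HRP secondary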
# setup.conditions: A549 phospho-S6 cytoblot, 5 h, higher = more signal
Binary classification by z-score, with 0.3 as an inclusive lower bound for criterion met; all other cases are criterion not met.

# compound, assigned.label
rows = [
    ("Cc1ccc(S[C@]2(C(=O)NCCN3CCOCC3)CC(=O)N(Cc3ccccc3)[C@@H]2c2ccc(CO)cc2I)cc1", "criterion met"),
    ("CC(C)C(=C=CC[C@@H](O)c1ccccc1OCCO)CCO", "criterion not met"),
    ("C=CCNC(=O)[C@H]1[C@@H]2C(=O)O[C@@H](c3ccccc3)[C@@H](c3ccccc3)N2[C@@H](c2ccc(OCCO)cc2)[C@]12C(=O)N(C(=O)OCCOC)c1ccccc12", "criterion not met"),
    ("C=C(COC)/C(=C/C[C@@H](OC(C)=O)c1ccc(CO)o1)c1cnc2ccccc2c1", "criterion not met"),
    ("COc1ccc([C@H]2C[C@H]3C(Br)=C[C@@H]2C(=O)[C@]32CO2)cc1", "criterion not met"),
    ("C=CCN(Cc1ccccc1)C(=O)C(c1cccs1)N(CCOCCO)C(=O)/C=C\\C(=O)O (centres undefined)", "criterion met"),
    ("C=CCOC(=O)[C@H]1[C@@H]2C(=O)O[C@@H](c3ccccc3)[C@@H](c3ccccc3)N2[C@@H](c2ccc(OCCOC(=O)[C@H]3C[C@H]4C(=O)N[C@@H](CC(C)C)C(=O)N4[C@H]3c3ccc(O)cc3)cc2)[C@]12C(=O)Nc1ccc(I)cc12", "criterion not met"),
    ("CO[C@H]1O[C@H](CO)[C@@H](OC(=O)Nc2ccc(Br)cc2)[C@H](OC(=O)c2cc3ccccc3[nH]2)[C@H]1OC(=O)c1cc2ccccc2[nH]1", "criterion met"),
    ("COCCCNC(=O)[C@@]1(Cc2ccccc2)N=C(c2ccc(OCCCO)cc2)O[C@H]1c1ccccc1", "criterion not met"),
]

----------
# system: NADPH oxidase 5 (Homo sapiens) (UniProt Q96PH1)
# Sequence (Q96PH1 whole entry, looked up): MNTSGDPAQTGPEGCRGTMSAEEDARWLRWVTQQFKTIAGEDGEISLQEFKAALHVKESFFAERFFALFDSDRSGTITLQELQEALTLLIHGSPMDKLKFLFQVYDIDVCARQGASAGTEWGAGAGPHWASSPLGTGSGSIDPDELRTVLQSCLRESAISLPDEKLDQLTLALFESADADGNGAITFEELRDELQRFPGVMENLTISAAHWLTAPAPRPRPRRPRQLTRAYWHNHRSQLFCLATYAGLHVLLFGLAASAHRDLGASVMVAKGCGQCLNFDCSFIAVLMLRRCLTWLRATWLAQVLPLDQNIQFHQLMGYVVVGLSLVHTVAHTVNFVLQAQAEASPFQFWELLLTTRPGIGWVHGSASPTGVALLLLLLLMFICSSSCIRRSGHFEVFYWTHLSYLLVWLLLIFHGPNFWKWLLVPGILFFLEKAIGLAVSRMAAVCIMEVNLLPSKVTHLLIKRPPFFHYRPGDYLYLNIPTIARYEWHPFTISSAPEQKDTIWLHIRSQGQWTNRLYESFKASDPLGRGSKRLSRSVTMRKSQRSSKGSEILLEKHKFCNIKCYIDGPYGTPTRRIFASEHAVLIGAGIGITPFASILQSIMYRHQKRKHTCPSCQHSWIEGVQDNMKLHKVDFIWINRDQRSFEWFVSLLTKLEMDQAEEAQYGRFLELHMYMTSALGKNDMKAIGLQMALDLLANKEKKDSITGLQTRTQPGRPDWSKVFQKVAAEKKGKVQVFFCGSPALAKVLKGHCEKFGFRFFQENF
# test.description: NOX5-dependent H2O2 signal modulators, primary screen, NOX inhibitor project, cell-based, HEK293-NOX5, Amplex Red fluorescence (AID 1161)
# setup.conditions: HEK293-NOX5, ionomycin, 45 min, higher = more signal
Rule: z-score under 0.04 gives NO, otherwise YES.

# compound, system, assigned.label
measured = [
    ("C=CCN1C(=O)[C@]2(O[C@H](CCO)[C@@H]([Si](C)(C)c3ccc(OC)cc3)[C@@H]2C)c2cc(N3C(=O)c4cccc5cccc3c45)ccc21", "NADPH oxidase 5 (Homo sapiens) (UniProt Q96PH1)", "NO"),
    ("C=C(COC)/C(=C/C[C@@H](OC(C)=O)c1ccc(CO)o1)c1cnc2ccccc2c1", "NADPH oxidase 5 (Homo sapiens) (UniProt Q96PH1)", "NO"),
    ("C=C(C)C1C(=C)CN([C@H](CO)c2ccccc2)C1=O (some centres not stated)", "NADPH oxidase 5 (Homo sapiens) (UniProt Q96PH1)", "NO"),
    ("CCCCCC1=C2CNC(CCC)(C(=O)OC)C=C2C(C)C1=O (configuration not stated)", "NADPH oxidase 5 (Homo sapiens) (UniProt Q96PH1)", "NO"),
    ("O=C1[C@H]2C=C(Br)[C@H](C[C@@H]2OCCCCO)[C@@]12CO2", "NADPH oxidase 5 (Homo sapiens) (UniProt Q96PH1)", "YES"),
    ("O=C1[C@H]2C=C(Br)[C@H](C[C@@H]2c2ccccc2)[C@@]12CO2", "NADPH oxidase 5 (Homo sapiens) (UniProt Q96PH1)", "NO"),
    ("C=CCOC(=O)[C@@H]1[C@H]2C(=O)O[C@H](c3ccccc3)[C@H](c3ccccc3)N2[C@H](c2ccc(OCCOC(=O)[C@@H]3C[C@@H]4C(=O)N5CCC[C@H]5C(=O)N4[C@@H]3c3ccc(O)cc3)cc2)[C@@]12C(=O)Nc1ccc(I)cc12", "NADPH oxidase 5 (Homo sapiens) (UniProt Q96PH1)", "YES"),
    ("C=C(CCCC)C(=O)CC[C@H](OC(C)=O)c1cccc(OCCO)c1", "NADPH oxidase 5 (Homo sapiens) (UniProt Q96PH1)", "NO"),
    ("Cc1ccc(C(C)CC(O)C2C=CC3C(=O)N(c4ccccc4)C(=O)C3N2Nc2ccc([N+](=O)[O-])cc2)o1 (configuration not stated)", "NADPH oxidase 5 (Homo sapiens) (UniProt Q96PH1)", "NO"),
    ("C=CCN1C(=O)[C@@]2(O[C@@H](CCO)[C@H]([Si](C)(C)c3ccc(OC)cc3)[C@H]2C)c2cc(NC(=O)c3ccc(OC)cc3)ccc21", "NADPH oxidase 5 (Homo sapiens) (UniProt Q96PH1)", "NO"),
    ("COc1cc2c(cc1OC)CN(C(=O)[C@@H]1[C@H]3C(=O)O[C@H](c4ccccc4)[C@H](c4ccccc4)N3[C@H](c3ccc(O)cc3)[C@@]13C(=O)Nc1ccc(C#CC4(O)CCCCCC4)cc13)CC2", "NADPH oxidase 5 (Homo sapiens) (UniProt Q96PH1)", "YES"),
    ("NCCCCCNC(=O)[C@@H]1C[C@@H]2C(=O)NCC(=O)N2[C@@H]1c1ccc(O)cc1", "NADPH oxidase 5 (Homo sapiens) (UniProt Q96PH1)", "YES"),
]

Cited source for all entries: PubChem BioAssay
